These entries and their values trace back to paper PMC11747885.

- experimental system: Rlig1-AMP (Homo sapiens, UniProt Q8N999)
- Construct: made in house; host or cells: E. coli BL21 (DE3), pET15b-Rlig1
- Sequence (Q8N999 whole entry): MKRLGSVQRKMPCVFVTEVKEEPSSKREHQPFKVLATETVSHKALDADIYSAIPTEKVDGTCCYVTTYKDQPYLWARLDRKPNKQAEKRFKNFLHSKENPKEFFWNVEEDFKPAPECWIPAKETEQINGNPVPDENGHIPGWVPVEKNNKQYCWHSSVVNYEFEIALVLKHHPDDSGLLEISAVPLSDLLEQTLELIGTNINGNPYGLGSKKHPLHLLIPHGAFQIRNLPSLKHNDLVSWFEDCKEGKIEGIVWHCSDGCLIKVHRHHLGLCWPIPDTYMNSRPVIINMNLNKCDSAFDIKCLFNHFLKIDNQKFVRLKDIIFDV
- assay protocol: Radioactive RNA ligation assay (hit validation, 10 µM test and IC50 determination)
- Type: biochemical
- experimental setup: Figure 5B; Sigmoidal, 4PL; read-out: IC50 (best-fit value), Rlig1
reported property: IC50 (µM)
Dear colleague, please return just the value in µM, with no unit written.

### Prompt Form field: reported IC50 of Nc1nccc(Nc2ccc(NC(=O)c3ccc(Nc4ncnc5ccccc45)cc3)cc2)n1 [Compound 47]
### Response 4.55

###

- experimental system: Rlig1-AMP (Homo sapiens, UniProt Q8N999)
- Construct: made in house; host or cells: E. coli BL21 (DE3), pET15b-Rlig1
- assay protocol: FRET-based high-throughput screening of inhibitors for Rlig1-AMP
- Assay type: biochemical
- experimental setup: sheet HTS hits; with enzyme
reported property: Raw data [w Enyzm]
Output spec: single numeric token, no unit.

Take a look at these entries with their results.
molecule	Raw data [w Enyzm]
COc1ccc(-c2coc3cc(O)cc(O)c3c2=O)cc1	8945
Cc1cccc2c3c(ccc12)C(=O)C1=C(OCC1C)C3=O (stereo not shown) [Dihydroisotanshinone I]	11164
CC(C)(C)OC(=O)CCOCCBr	9154
COC(=O)/C=C/c1ccc(O)c(O)c1 [Methyl caffeate]	9476

### Prompt Form field: reported Raw data [w Enyzm] of Cc1ncsc1-c1ccc(CNC(=O)[C@@H]2C[C@@H](O)CN2C(=O)[C@@H](NC(=O)CCN)C(C)(C)C)cc1.Cl.Cl [(S,R,S)-AHPC-C2-NH2 (dihydrochloride)]
### Response 9239

### Prompt Form field: reported Raw data [w Enyzm] of [N-]=[N+]=NCCOCCOCCOCCN(CCOCCOCCN)CCOCCOCCOCCN=[N+]=[N-] [N-(Amino-PEG2)-N-bis(PEG3-azide)]
### Response 9036

### Prompt Form field: reported Raw data [w Enyzm] of CCOc1ccccc1OCCN[C@H](C)Cc1ccc(OC)c(S(N)(=O)=O)c1
### Response 8934

### Prompt Form field: reported Raw data [w Enyzm] of O=C1c2ccccc2-c2nc3nonc3nc21
### Response 13928

### Prompt Form field: reported Raw data [w Enyzm] of CO[C@H]1/C=C/O[C@@]2(C)Oc3c(C)c(O)c4c(O)c(c(/C=N/N5CCN(C6CCCC6)CC5)c(O)c4c3C2=O)NC(=O)/C(C)=C\C=C\[C@H](C)[C@H](O)[C@@H](C)[C@@H](O)[C@@H](C)[C@H](OC(C)=O)[C@@H]1C
### Response 7400

### Prompt Form field: reported Raw data [w Enyzm] of COc1cc(/C=C(\C#N)C(=O)c2ccc(O)c(O)c2)cc(I)c1O
### Response 1659

### Prompt Form field: reported Raw data [w Enyzm] of CS(=O)(=O)n1cc2c(n1)CN([C@H]1CO[C@H](c3cc(F)ccc3F)[C@@H](N)C1)C2
### Response 9138

###

- experimental system: Rlig1-AMP (Homo sapiens, UniProt Q8N999)
- Construct: made in house; host or cells: E. coli BL21 (DE3), pET15b-Rlig1
- assay protocol: Radioactive RNA ligation assay (hit validation, 10 µM test and IC50 determination)
- Type: biochemical
- experimental setup: log(inhibitor) vs. response, variable slope (four parameters)
Property: Top (best-fit value); scope: individual compounds
Output spec: single numeric token, no unit.

> print(dat)
                                item.smiles     reported.property  readout.value
1  CNc1nccc(Nc2ccc(NC(=O)c3ccc(Nc4ccnc5ccccc45)cc3)cc2)n1  Top (best-fit value)          99.05
2  Nc1nc(Nc2ccc(NC(=O)c3ccc(Nc4ccnc5ccccc45)cc3)cc2)cc(C(F)(F)F)n1  Top (best-fit value)           97.9
3  Cc1cc(Nc2ccc(NC(=O)c3ccc(Nc4ncnc5ccccc45)cc3)cc2)nc(N)n1  Top (best-fit value)          98.18

Let's switch to this compound now.
### Prompt Form field: reported Top (best-fit value) of Nc1nccc(Nc2ccc(NC(=O)c3ccc(Nc4ccnc5ccccc45)cc3)cc2)n1
### Response 97.8
